These entries and their values trace back to paper PMC10397247.

# testSystem: T1, 4H2165-AA
# T1 chain: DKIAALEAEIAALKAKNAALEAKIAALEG
# experimentalDetails: two-hybrid library CCmax;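 note: natural log of median RNA to DNA barcode read ratio; higher means stronger binding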
# experimentalConditions: mean of both orientations

binder | interaction score
DKIAALEAEIAALEAENAALKAKIAALKG [4H2078-AA] | 0.246
DENAALKAENAALKAKIAALEAKIAALEG [4H1765-AA] | -1.25
DKIAALEAEIAALKAKIAALEAKNAALEG [4H2151-AA] | -0.932
DENAALEAKIAALEAKIAALKAENAALKG [4H1324-AA] | -1.47
DENAALKAEIAALKAKNAALEAEIAALKG [4H1650-AA] | -1.3
DENAALEAEIAALEAKNAALKAKIAALKG [4H1086-AA] | -1.24
DEIAALEAEIAALKAKNAALKAEIAALKG [4H122-AA] | -0.0868
